# Assay: in vitro
# Experimental parameters: human
Recorded measurements of IC50 at 48 h, one per entry

Sample records with IC50 at 48 h:
[
  {
    "Compound": "CC12CCC(CC1=O)C2(C)C (stereo not drawn) [Camphor]",
    "IC50 at 48 h": "> 200 µg/mL"
  },
  {
    "Compound": "CC1(C)C2CCC1(C)C(O)C2 (stereo not drawn) [Borneol]",
    "IC50 at 48 h": "> 200 µg/mL"
  },
  {
    "Compound": "CC1=CC=C(C(C)C)CC1 [α-Terpinene]",
    "IC50 at 48 h": "28 to 112 µg/mL"
  },
  {
    "Compound": "C=C1CC/C=C(\\C)CC[C@@H]2[C@@H]1CC2(C)C [β-Caryophyllene]",
    "IC50 at 48 h": "28 to 112 µg/mL"
  },
  {
    "Compound": "CC1=CCC(C(C)C)=CC1 [γ-Terpinene]",
    "IC50 at 48 h": "28 to 112 µg/mL"
  },
  {
    "Compound": "CC1=CCC2CC1C2(C)C (stereo not drawn) [α-Pinene]",
    "IC50 at 48 h": "28 to 112 µg/mL"
  }
]

Provide one value: measured IC50 at 48 h of C=C1CCC2CC1C2(C)C (stereo not drawn) [β-Pinene] 28 to 112 µg/mL

Answer with reported IC50 at 48 h of CC12CCC(CC1)C(C)(C)O2 [1,8-Cineole] > 200 µg/mL

Input C=C1C2CCC(C2)C1(C)C (stereo not drawn) [Camphene] , output reported IC50 at 48 h. 28 to 112 µg/mL
